The origin of these recorded values is PubChem BioAssay AID2060902.

- Tested on: 485368-065-R3-J5-PDC spheroids with HUVEC/MSC, viability;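 further: spheroids exposed to agents for seven days before readout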
- measurementDescription: Anticancer human tumor 485368-065-R3-J5-PDC patient-derived pancreatic carcinoma cell line growth inhibition [RAS]
- condition: curve of first compound; second compound 0.00949 µM
- Text: RAS pathway inhibitors in Combinations in Complex Spheroids A high-throughput screen of multi-cell type tumor spheroids was designed to identify active combinations of RAS pathway inhibitors and targeted small molecules. Complex spheroids include a stromal component modeled by human endothelial cells (HUVEC) and fibroblasts modeled by human mesenchymal stem cells (MSCs). […] Compounds. […] If the clinical Cmax for an agent had not been determined, the highest concentration tested was 10 microM. […]
Let's look at some molecules and their measured IC50.

CCC(CC)c1cc(NC2CCC(N)C2)n2nccc2n1 (centres undefined) + CCn1c(-c2cc(N3CCN(C)CC3)cnc2C(C)OC)c2c3cc(ccc31)-c1csc(n1)CC(NC(=O)C1CC1C)C(=O)N1CCCC(N1)C(=O)OCC(C)(C)C2    < 31.6 nM
CC(=O)OC12COC1CC(O)C1(C)C(=O)C(O)C3=C(C)C(OC(=O)C(O)C(NC(=O)OC(C)(C)C)c4ccccc4)CC(O)(C(OC(=O)c4ccccc4)C21)C3(C)C (centres undefined) + CCn1c(-c2cc(N3CCN(C)CC3)cnc2C(C)OC)c2c3cc(ccc31)-c1csc(n1)CC(NC(=O)C1CC1C)C(=O)N1CCCC(N1)C(=O)OCC(C)(C)C2    < 31.6 nM
Nc1ccn(C2OC(CO)C(O)C2(F)F)c(=O)n1 (centres undefined) + CCn1c(-c2cccnc2C(C)OC)c2c3cc(ccc31)N1CCOC(CC(NC(=O)C(C(C)C)N(C)C(=O)C3(F)CCN(C(=O)C#CC(C)(C)N(C)C)CC3)C(=O)N3CCCC(N3)C(=O)OCC(C)(C)C2)C1    9.21 nM

Please look at the following molecule next.
[ask] Return IC50 for the following molecule: CC(C)n1nc(-c2ccc3oc(N)nc3c2)c2c(N)ncnc21 + CCn1c(-c2cc(N3CCN(C)CC3)cnc2C(C)OC)c2c3cc(ccc31)-c1csc(n1)CC(NC(=O)C1CC1C)C(=O)N1CCCC(N1)C(=O)OCC(C)(C)C2
[reply] < 0.316 nM
